- target-under-test: Histamine H1 receptor (Homo sapiens) (UniProt P35367)
- Sequence (P35367 whole entry): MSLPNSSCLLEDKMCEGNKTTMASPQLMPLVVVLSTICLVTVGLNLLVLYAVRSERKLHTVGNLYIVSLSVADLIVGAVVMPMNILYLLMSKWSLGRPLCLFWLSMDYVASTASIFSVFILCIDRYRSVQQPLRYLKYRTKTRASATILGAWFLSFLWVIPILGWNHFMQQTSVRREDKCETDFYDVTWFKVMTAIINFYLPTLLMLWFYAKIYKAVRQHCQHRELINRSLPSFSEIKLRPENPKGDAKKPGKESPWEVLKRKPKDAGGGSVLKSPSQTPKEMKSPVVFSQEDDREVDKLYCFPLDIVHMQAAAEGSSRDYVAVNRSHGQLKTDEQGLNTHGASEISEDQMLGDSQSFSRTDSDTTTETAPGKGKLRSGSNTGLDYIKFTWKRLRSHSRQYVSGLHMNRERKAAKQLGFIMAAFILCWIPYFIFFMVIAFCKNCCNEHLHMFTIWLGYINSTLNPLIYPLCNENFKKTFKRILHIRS
- protocol-summary: Displacement of [3H]-pyrilamine from human H1 histamine receptor expressed in human HEK293 cells at 10 uM relative to control
- Assay type: cell-based
Reported inhibition values are given for each entry in this list.
I only need the number, in %, no unit after it.

C[C@H]1CN(CC[C@H]2CC[C@H](NC(=O)[C@@H]3CCCN3)CC2)CCc2ccc(Cl)cc21 ... 60.1
C[C@H]1CN(CC[C@H]2CC[C@H](NC(=O)N3CCOCC3)CC2)CCc2ccc(Cl)cc21 ... 33.3
C[C@H]1CN(CC[C@H]2CC[C@H](NC(=O)C3CCCCC3)CC2)CCc2ccc(Cl)cc21 ... 36.8
C[C@@H]1CN(CC[C@H]2CC[C@H](NC(=O)N(C)C)CC2)CCc2ccc(Cl)cc21 ... 46.5
C[C@H]1CN(CC[C@H]2CC[C@H](NC(=O)C3CC3)CC2)CCc2ccc(Cl)cc21 ... 33.2
C[C@H]1CN(CC[C@H]2CC[C@H](N3C(=O)CCC3=O)CC2)CCc2ccc(Cl)cc21 ... 62.4

Endpoint output: inhibition of "C[C@H]1CN(CC[C@H]2CC[C@H](N3C(=O)c4ccccc4C3=O)CC2)CCc2ccc(Cl)cc21" . Value? 40.8

Endpoint output: inhibition of "C[C@H]1CN(CC[C@H]2CC[C@H](NC(=O)[C@@H]3CCCO3)CC2)CCc2ccc(Cl)cc21" . Value? 32.2

Endpoint output: inhibition of CC1CN(CC[C@H]2CC[C@H](NC(=O)N(C)C)CC2)CCc2ccc(Cl)cc21 (mixture of isomers) . Value? 25.8

Endpoint output: inhibition of "C[C@H]1CN(CC[C@H]2CC[C@H](N3C(=O)[C@H]4CCCC[C@H]4C3=O)CC2)CCc2ccc(Cl)cc21" . Value? 86.1

Endpoint output: inhibition of "CCN(C)C(=O)N[C@H]1CC[C@H](CCN2CCc3ccc(Cl)cc3[C@@H](C)C2)CC1" . Value? 49.7

Endpoint output: inhibition of "C[C@H]1CN(CC[C@H]2CC[C@H](NC(=O)N(C)C)CC2)CCc2ccc(Cl)cc21" . Value? 59.6

These data points were gathered from ChEMBL document CHEMBL4673287.
